The entries below come with measured melting point values attached.

# count of solved cases: 6
Form: compound = Nc1cc(C(F)(F)F)cc(C(F)(F)F)n1 ; melting point = 70.8 to 71.2 °C

GET /value?item= COc1ccc([C@@H]2C[C@H]2CNC(=O)N(C)O)cc1 (relative stereo) &field=melting point returns 112 °C

Note to self: melting point recorded for COC(CCc1cc(C(F)(F)F)cc(C(F)(F)F)c1)C(Cc1csc2ccccc12)NC(C)=O (stereo not drawn) was 120 to 121 °C

Entry C#CCSC(=S)N(C)C ; melting point = 57 to 59 °C

The measured melting point associated with COC(=O)c1ccc(N2C(=O)C(O)=C(C(=O)c3ccc(C)cc3)C2c2ccc(C(C)(C)C)cc2)nc1 (stereo not drawn) reads 287 to 288 °C

// recorded melting point for CC(=O)N1CCC(n2ccc(-c3ccc(F)cc3)c2-c2ccncc2)CC1 : 223 to 224 °C

Further cases:
In plain terms, O=C1NC(=O)C(=Cc2ccc(-c3ccc(O)c(C45CC6CC(CC(C6)C4)C5)c3)cc2)S1 has a documented melting point of 307 to 308 °C

melting point recorded for this compound, COc1ccccc1N1CCN(CC(O)CCN2C(=O)c3ccccc3C2=O)CC1 (stereo not drawn) , is 192 to 194 °C

----------
Below: a set of entries, each annotated with reported melting point.

In plain terms, O=C(Nc1ccc(Cl)c(C(F)(F)F)c1)Nc1ccc(-c2ccc(C(F)(F)F)cc2)cc1-c1nnn[nH]1 has a documented melting point of 226 to 228 °C

melting point reading for CC(C)(C)OC(=O)N1CCn2c(Cl)cc(C(N)=O)c2C1 : 223 to 225 °C

// melting point lookup, compound = CC(Cc1c[nH]c2ccccc12)(NC(=O)OC12CC3CC(CC(C3)C1)C2)C(=O)O (racemic) , result: 206 to 218 °C

Entry O=C(O)c1cccc(C(=O)NC(Cc2c[nH]c3ccccc23)C(=O)CCc2cc(C(F)(F)F)cc(C(F)(F)F)c2)c1 (configuration not stated) , melting point reported as 113 to 116 °C

Query Cn1c(C(F)(F)F)cc(=O)n(-c2cc(OCS(C)=O)c(Cl)cc2F)c1=O (configuration not stated) yields melting point of 178 to 179 °C

Others:
response.value for O=C1C(=Cc2ccc(Cl)cc2)N2CCC1CC2 (field: melting point) = 108 to 110 °C

// Cc1c(C)c2c(c(C)c1OCc1ccccc1)C(c1ccc(N(C)C)cc1)C(C)(C)O2 (configuration not stated) : melting point value = 110 to 112 °C

The reported value for COc1cc2c(c(OC)c1)C1CCC3(C)C(OC(C)=O)CCC3C1CC2 (configuration not stated) in terms of melting point is 131 to 134 °C

melting point measured on CCN(C)c1cc(F)cc(C(=O)Nc2ccc(OCCN3CCOCC3)c3ccccc23)c1 = 126 to 128 °C

Lab note: O=C1c2ccccc2C(=O)N1CCSc1ccc(O)cc1 gave melting point of 124 to 125 °C

Reported melting point for CCCCCCCCCCNC(=O)C=C(c1ccccc1)c1ccc([N+](=O)[O-])cc1 was 91 to 93 °C

Recorded result, Cc1ccc(C2c3c(C)c(N4CCN(C)CC4)c(C)c(C)c3OC2(C)C)cc1 (configuration not stated) , melting point: 188 to 190 °C

Reported melting point ( COC(=O)c1cccc([N+](=O)[O-])c1NCc1ccc(-c2ccccc2-c2nnnn2Cc2ccccc2)cc1 ) = 115 to 117 °C

Item: CCOC(=O)CCC(=O)c1ccc(O)c(O)c1 | melting point: 116 to 117 °C

Lookup result for CCOC1CC(c2ccccc2)Oc2c1ccc1c2nc(C)n1C (configuration not stated) ; measured melting point: 177 to 178 °C

Input CCOC(=O)c1nc2ccc(OC)cc2nc1SCC . Output melting point: 70 °C

Lab note: O=C(O)C1CCOc2ccc(F)cc21 (configuration not stated) gave melting point of 111 to 115 °C

----------
Reported Metric: melting point

In plain terms, COC(=O)CCSCc1ccc2oc(-c3ccc4ccc(Cl)cc4n3)cc2c1 has a documented melting point of 96 to 103 °C

Please fill in: melting point reported for CCOC(=O)c1oc2ccc(Br)c(OC(C)C)c2c1C = 48 to 50 °C

Per the records, this molecule ( CCCCCCOc1cc(-n2c(=O)cc(C(F)(F)F)n(C)c2=O)c(F)cc1Cl ) has melting point equal to 60 to 63 °C

----------
Each entry below carries its recorded melting point.

Per the record, CN(C)CCCN(C)C(=O)c1cc([N+](=O)[O-])c[nH]1 has melting point of 118 to 120 °C

Value of measured melting point for the entry O=C(O)C(O)c1ccccc1[N+](=O)[O-] (stereo not given) : 137 to 139 °C

// melting point lookup, compound = CCN1CCC(NC(=O)Cn2c(-c3ccc(Br)cc3)nc3cccnc32)C1 (stereo not given) , result: 202 to 204 °C

Per the records, this compound ( Cc1nnc(-c2ccccc2F)n2nc(OCc3ncnn3C)c(-c3ccoc3)c12 ) has melting point equal to 150 to 153 °C

Record summary for CS(=O)(=O)c1ccccc1C(=O)C(C#N)C(=O)C1CC1 (stereo not given) : reported melting point = 155 °C

----------
Reported Metric: melting point

As a guide, the following entries are already answered.
Recorded result, O=C(C1CCCc2c1c1ccccc1n2Cc1ccccc1)N1CCCCC1 (configuration not stated) , melting point: 249 to 252 °C

Summary for this compound, CN(CCO)CC1(SSC2(CN(C)CCO)CCCCC2)CCCCC1 : melting point is 65 to 70 °C

Consider COc1ccc(/C(=C/C=C/C(=O)Oc2ccc([N+](=O)[O-])cc2)c2cccs2)cc1 . Its measured melting point is 113 to 115 °C

The compound CCCCc1c(OCCN2CCOCC2)c2c(OCCN3CCOCC3)cc(OCCN3CCOCC3)cc2oc1=O showed melting point equal to 131 °C

melting point measured on Cc1nc(C(Cl)(Cl)Cl)nc(OC(=O)N(C)C)c1Cl = 87 to 88 °C

The measured melting point associated with COC(=O)c1ccc(I)c2c1Nc1ccccc1C2 reads 119 to 121 °C

Documented melting point of Cc1ccc(S(=O)(=O)N2Cc3cnc(C)n3-c3ccc(Cl)cc3C2c2ccccc2F)cc1 (configuration not stated) : 152 to 153 °C

Sample COc1ccccc1C1C(C#N)=C(c2ccccc2)Nc2n[nH]cc21 (configuration not stated) ; melting point observed: 206 °C

Memo: Cc1nc2c(O)cc(C(=O)N(C)C)cc2n1C , reported melting point: 248 °C

// melting point value for CC(=O)Nc1ccc(-c2nc3c(s2)C(=O)c2ccccc2C3=O)o1 : > 260 °C

Continuing:
For record O=C1c2ccccc2S(=O)(=O)c2cc(C3=NCCN3)ccc21 the listed melting point is 241 to 242 °C

The compound listed as COc1ccc(C=CC(=O)C2C(=O)C=C(C)OC2=O)cc1O (configuration not stated) has a reported melting point of 217 to 219 °C

----------
Below, each of the compounds is paired with its reported melting point value.

Please review the following examples before continuing.
So for COc1ccc2c(c1)NC1(CCN(C)CC1)c1cccn1-2 , the logged melting point turned out to be 124 to 125 °C

compound CC(C)NC(=O)c1ccc(N2CCC(N3C(=O)OCc4ccccc43)CC2)c(S(C)(=O)=O)c1 , melting point observed: 240 to 242 °C

Measured melting point, CCC(CC)c1ccc(Cl)c2nc(Nc3ccc(OC)nc3OC)n(CCCCO)c12 : 116 to 118 °C

Note to self: melting point recorded for CC(C)c1c(Sc2ccccc2)n(CC2=CCC(CO)C2)c(=O)[nH]c1=O (stereo not drawn) was 166 to 168 °C

The compound listed as ClCc1ccc2oc(-c3cccs3)nc2c1 has a reported melting point of 152 to 153 °C

Entry CC1(C)CCC(C)(C)c2cc(S(=O)c3ccc(C(=O)O)cc3)ccc21 (stereo not drawn) — recorded melting point = 214 to 216 °C

# compound COc1ccccc1C(CSc1ccccc1N)C(=O)O (stereo not drawn) ; its melting point = 85 °C

--- query ---
Sample CCc1cnc(N2CCC(c3nc4cc(-c5ccc(S(C)(=O)=O)cc5F)ccc4[nH]3)CC2)nc1 ; melting point observed: 186 to 190 °C

----------
Each item that follows carries a reported melting point.

response.value for N#Cc1ncc(SCC(=O)O)nc1C#N (field: melting point) = 141 to 143 °C

So, CCC1C(=O)Nc2c(C(=O)c3ccc(Cl)cc3)cccc21 (configuration not stated) ? Its melting point was 140 to 145 °C

Kindly note the recorded melting point for CCc1noc(-c2cn(-c3cccc(Cl)c3)cn2)n1 , which is 134 to 135 °C

Form field melting point, entry N#Cc1c2[nH]c(C(=O)O)cc(=O)c2cc2c(=O)cc(C(=O)O)[nH]c12 : > 320 °C

get_value(item= CC(C)C[C@H](NC(=O)c1cc2ccccc2o1)C(=O)N[C@H]1CC[C@@H](C)N(S(=O)(=O)c2ccccn2)CC1=O , readout=melting point) returns 151 to 153 °C

Next:
Entry under test: CC(C)C(=O)OC1(C(=O)CO)CCC2C3CC(C)C4=CC(=O)CCC4(C)C3C(O)CC21C (configuration not stated) . Its melting point was 191 °C

Notebook: CC(C)[C@H](NC(=O)Cc1csc(N(C)C)n1)C(=O)N[C@@H](Cc1ccccc1)[C@@H](O)C[C@H](Cc1ccccc1)NC(=O)OCc1cncs1 , melting point read as 157 to 159 °C

Value of melting point reported for the compound O=C1NCCN1c1cn(-c2cccnc2)nc1Cl is 167 to 170 °C

Just so you know, measured melting point for CC(C)(C)Sc1ccc(CC=CN(O)C(N)=O)s1 came out at 111 to 113 °C

The measured melting point associated with CCOC(=O)c1[nH]c2ccc(Cl)c(F)c2c1S(=O)(=O)c1cc(C)cc(C)c1 reads 224 to 226 °C

For record CC(=O)c1ccc(OCCOc2ccc3ccccc3c2)cc1Cl the listed melting point is 119 to 120 °C

For record O=C(Nc1nccs1)c1nc(-c2ccc(N3CCC(N4CCOCC4)CC3)cc2)[nH]c1-c1ccc(Cl)cc1 the listed melting point is 165 to 170 °C
